# Tested on: NCI-H23 lung
# TEST NAME: NCI-60 one-dose screen, 48 h
# CONDITION LABEL: 10 µM unless noted
The panel holds about 83,000 compounds, 20% with a hit somewhere; the sample as a whole holds those more often. Activity calls are given as the source filed them. The calls were made as follows: active = growth percent below 10; inactive = the rest.
Labels: Yes (active), No (inactive)

COMPOUND: Oc1c(Br)cc(Br)c2ccc(Cn3cc(-c4ccc(C(F)(F)F)cc4)nn3)nc12
GROUP: No
--
COMPOUND: O=C1/C(=C\c2ccc3nccnc3c2)SC(=S)N1CCc1ccc(O)cc1
GROUP: No
--
COMPOUND: C=C1C(=O)O[C@H]2[C@H]1CC/C(Cn1cc(-c3ccccc3)nn1)=C\CC[C@@]1(C)O[C@@H]21
GROUP: Yes
--
COMPOUND: CC(=O)c1c(C)nc(SCC(=O)Nc2cccc(O)c2)n1-c1ccc(Cl)cc1
GROUP: No
--
COMPOUND: CC(C)(Sc1cc(C(C)(C)C)c(O)c(C(C)(C)C)c1)Sc1cc(C(C)(C)C)c(OC(=O)CCCC(=O)O)c(C(C)(C)C)c1
GROUP: No
--
COMPOUND: CN(C)CC1CCC(CN(C)C)C1=O (stereo not given)
GROUP: No
--
COMPOUND: CNc1nnc2n(-c3ccccc3)c(=O)c3cnn(-c4ccccc4)c3n12
GROUP: No
--
COMPOUND: Cc1c(-c2ccc(O)cc2)n(Cc2ccc(OCCN3CCCCCC3)cc2)c2ccc(O)cc12
GROUP: No
--
COMPOUND: CCC(C)N(CCNc1cc(OC)cc2cccnc12)CC(C)C (stereo not given)
GROUP: No
--
COMPOUND: Cc1ccc(-c2nc(N3CCCNCC3)c3oc(-c4ccc(C)cc4)nc3n2)cc1
GROUP: No
